Target: memapsin 2 (Homo sapiens, UniProt P56817)
Sequence (P56817 46-501): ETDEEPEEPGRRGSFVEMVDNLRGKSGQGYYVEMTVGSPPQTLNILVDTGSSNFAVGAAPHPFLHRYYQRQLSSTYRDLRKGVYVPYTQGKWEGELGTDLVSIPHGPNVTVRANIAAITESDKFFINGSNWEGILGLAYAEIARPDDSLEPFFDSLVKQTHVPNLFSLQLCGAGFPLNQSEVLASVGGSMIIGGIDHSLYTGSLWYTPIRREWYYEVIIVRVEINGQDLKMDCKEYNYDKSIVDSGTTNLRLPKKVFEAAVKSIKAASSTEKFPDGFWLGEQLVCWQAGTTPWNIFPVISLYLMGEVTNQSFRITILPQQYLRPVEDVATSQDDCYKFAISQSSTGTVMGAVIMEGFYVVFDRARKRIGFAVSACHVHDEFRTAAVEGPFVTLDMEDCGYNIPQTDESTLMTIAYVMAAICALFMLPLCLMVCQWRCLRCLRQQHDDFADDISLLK
Assay: Inhibition of memapsin 2 beta-secretase activity (fluorogenic substrate FS-2)
Type: biochemical
Conditions: memapsin 2, pH 4, 37° C., fluorogenic substrate FS-2; read-out: M2Ki
pKi: −log10 of the molar value.
Quantity measured: pKi

In: Hi! What's the reported pKi for CN(Cc1nc(CF)cs1)C(=O)c1cccc(C(=O)N[C@@H](Cc2ccccc2)[C@H](O)CNCc2cncc(C(F)(F)F)c2)c1 on memapsin 2 (Homo sapiens, UniProt P56817)?
Out: > 6.52

In: Hi! What's the reported pKi for COc1cccc(CNC[C@@H](O)[C@H](Cc2ccccc2)NC(=O)c2cc(C(=O)N(C)Cc3nc(C)cs3)cc(N3CCCCC3)c2)c1 on memapsin 2 (Homo sapiens, UniProt P56817)?
Out: > 6.52

In: Hi! What's the reported pKi for Cc1csc(CNC[C@@H](O)[C@H](Cc2ccccc2)NC(=O)c2cccc(C(=O)N(C)Cc3nc(C)cs3)c2)n1 on memapsin 2 (Homo sapiens, UniProt P56817)?
Out: < 6.30

In: Hi! What's the reported pKi for COP(=O)(OC)Oc1cc(CNC[C@@H](O)[C@H](Cc2ccccc2)NC(=O)c2cccc(C(=O)N(C)Cc3nc(C)cs3)c2)cc(C(C)C)c1 on memapsin 2 (Homo sapiens, UniProt P56817)?
Out: > 6.52

In: Hi! What's the reported pKi for Cc1csc(CN(C)C(=O)c2cc(C(=O)N[C@@H](Cc3ccccc3)[C@H](O)CNCc3cncc(C(C)(C)F)c3)cc(-n3cccc3)c2)n1 on memapsin 2 (Homo sapiens, UniProt P56817)?
Out: > 6.52

Continuing:
In: Hi! What's the reported pKi for Cc1csc(CN(C)C(=O)c2cc(C(=O)N[C@@H](Cc3ccccc3)[C@H](O)CNCc3cccc(C(F)(F)F)c3)cc(N3CCCC3=O)c2)n1 on memapsin 2 (Homo sapiens, UniProt P56817)?
Out: > 6.52

In: Hi! What's the reported pKi for Cc1csc(CN(C)C(=O)c2cccc(C(=O)N[C@@H](Cc3ccccc3)[C@H](O)CNCc3cc(Br)cc(C(F)(F)F)c3)c2)n1 on memapsin 2 (Homo sapiens, UniProt P56817)?
Out: > 6.52
